System: human engineered heart tissue (hEHT)
Run parameters: human, 30 min
Property measured: Threshold concentration inducing irregular beating patterns (RR-scatter)
Please answer using the number first and the unit second.

Tested system human engineered heart tissue (hEHT); Threshold concentration inducing irregular beating patterns (RR-scatter) recorded for C=C[C@H]1C[N@@]2CC[C@H]1C[C@@H]2[C@@H](O)c1ccnc2ccc(OC)cc12 was 1000 nM

Noted Threshold concentration inducing irregular beating patterns (RR-scatter) for CCN(CC)CCNC(=O)c1ccc(N)cc1 [Procainamide] , tested on human engineered heart tissue (hEHT): 100000 nM

Result for O=C1NCCN1CCN1CCC(c2cn(-c3ccc(F)cc3)c3ccc(Cl)cc23)CC1 , tested on human engineered heart tissue (hEHT), Threshold concentration inducing irregular beating patterns (RR-scatter): 300 nM

Query COc1cc(N)c(Cl)cc1C(=O)NC1CCN(CCCOc2ccc(F)cc2)CC1OC (stereo not shown) [Cisapride] on human engineered heart tissue (hEHT); Threshold concentration inducing irregular beating patterns (RR-scatter) returned: 30 nM

----------
Task for the reader: assign each of the following molecules its reported Threshold concentration at which the compound significantly decreased relaxation velocity.
Test system: human engineered heart tissue (hEHT)
Run parameters: human, 30 min
Put down the number, then write its unit next to it.

Value of Threshold concentration at which the compound significantly decreased relaxation velocity reported for the molecule CCN(CC)CCNC(=O)c1ccc(N)cc1 [Procainamide] is 100000 nM

Reported Threshold concentration at which the compound significantly decreased relaxation velocity of O=C1NCCN1CCN1CCC(c2cn(-c3ccc(F)cc3)c3ccc(Cl)cc23)CC1 : 10 nM

Entry C=C[C@H]1C[N@@]2CC[C@H]1C[C@@H]2[C@@H](O)c1ccnc2ccc(OC)cc12 — recorded Threshold concentration at which the compound significantly decreased relaxation velocity = 1000 nM

get_value(item= COc1cc(N)c(Cl)cc1C(=O)NC1CCN(CCCOc2ccc(F)cc2)CC1OC (stereo not shown) [Cisapride] , readout=Threshold concentration at which the compound significantly decreased relaxation velocity) returns 30 nM
